experiment: Unbound brain to plasma partition coefficient of the compound in mdr1a-deficient mouse at 4 mg/kg/day administered through continuous minipump treatment for 3 days; format: ADME, organism-based; details: other: continuous minipump, read-out: K(p,uu,brain)
MEASURE: Kp uu at 72 h
The answer should be a number; do not append a unit.

molecule `Cc1nc2n(c(=O)c1CCN1CCC(c3noc4cc(F)ccc34)CC1)CCCC2` , Kp uu at 72 h observed: 0.81

###

assay: Total brain to plasma partition coefficient of the compound in wild type Sprague-Dawley rat expressing Abcb1a treated with venlafaxine at 9 mg/kg/day administered through continuous minipump treatment for 3 days; type: ADME, organism-based; settings: brain and plasma, other: continuous minipump
Each record here notes measured Kp at 72 h.
The answer should be a number; do not append a unit.

{"COMPOUND": "CN(C)CC(c1ccc(O)cc1)C1(O)CCCCC1 (configuration not stated)", "Kp at 72 h": 1}

compound CNCC(c1ccc(OC)cc1)C1(O)CCCCC1 (configuration not stated) , Kp at 72 h observed: 1.4

###

test: Total brain to plasma partition coefficient of the compound in wild type Crl:CF1 mouse expressing Abcb1a mutant at 12 mg/kg/day administered through continuous minipump treatment for 3 days; format: ADME, organism-based; conditions: brain and plasma, other: continuous minipump
MEASURE: Kp at 72 h
The answer should be a number; do not append a unit.

compound COc1ccc(C(CN(C)C)C2(O)CCCCC2)cc1.Cl (stereo unspecified) [VENLAFAXINE HYDROCHLORIDE] , Kp at 72 h observed: 4.7

###

test: Unbound brain to plasma partition coefficient of the compound in mdr1a-deficient rat at 6 mg/kg/day administered through continuous minipump treatment for 3 days; assay type: ADME, organism-based; conditions: other: continuous minipump, read-out: K(p,uu,brain)
MEASURE: Kp uu at 72 h
The answer should be a number; do not append a unit.

compound O=C1CCc2ccc(OCCCCN3CCN(c4cccc(Cl)c4Cl)CC3)cc2N1 [ARIPIPRAZOLE] , Kp uu at 72 h observed: 0.64

###

assay: Total brain to plasma partition coefficient of the compound in mdr1a-deficient mouse at 12 mg/kg/day administered through continuous minipump treatment for 3 days; assay type: ADME, organism-based; conditions: other: continuous minipump
MEASURE: Kp at 72 h
The answer should be a number; do not append a unit.

molecule COc1ccc(C(CN(C)C)C2(O)CCCCC2)cc1.Cl (stereo unspecified) [VENLAFAXINE HYDROCHLORIDE] , Kp at 72 h observed: 8.3

###

assay: Total brain to plasma partition coefficient of the compound in mdr1a-deficient rat at 9 mg/kg/day administered through continuous minipump treatment for 3 days; assay type: ADME, organism-based; details: brain and plasma, other: continuous minipump
MEASURE: Kp at 72 h
The answer should be a number; do not append a unit.

molecule COc1ccc(C(CN(C)C)C2(O)CCCCC2)cc1.Cl (stereo unspecified) [VENLAFAXINE HYDROCHLORIDE] , Kp at 72 h observed: 6.3

###

assay: Total brain to plasma partition coefficient of the compound in wild type Crl:CF1 mouse expressing Abcb1a mutant treated with venlafaxine at 12 mg/kg/day administered through continuous minipump treatment for 3 days; format: ADME, organism-based; conditions: other: continuous minipump
MEASURE: Kp at 72 h
The answer should be a number; do not append a unit.

{"COMPOUND": "CNCC(c1ccc(OC)cc1)C1(O)CCCCC1 (configuration not stated)", "MEASURE": "Kp at 72 h", "ASSAY_VALUE": 1.5}

Read the next record carefully.
compound CN(C)CC(c1ccc(O)cc1)C1(O)CCCCC1 (configuration not stated) , Kp at 72 h observed: 1.8
